biological target: Ataxin-2 (Homo sapiens) (UniProt Q99700); experiment: qHTS for Inhibitors of ATXN expression.; type: functional
Sequence (Q99700 whole entry): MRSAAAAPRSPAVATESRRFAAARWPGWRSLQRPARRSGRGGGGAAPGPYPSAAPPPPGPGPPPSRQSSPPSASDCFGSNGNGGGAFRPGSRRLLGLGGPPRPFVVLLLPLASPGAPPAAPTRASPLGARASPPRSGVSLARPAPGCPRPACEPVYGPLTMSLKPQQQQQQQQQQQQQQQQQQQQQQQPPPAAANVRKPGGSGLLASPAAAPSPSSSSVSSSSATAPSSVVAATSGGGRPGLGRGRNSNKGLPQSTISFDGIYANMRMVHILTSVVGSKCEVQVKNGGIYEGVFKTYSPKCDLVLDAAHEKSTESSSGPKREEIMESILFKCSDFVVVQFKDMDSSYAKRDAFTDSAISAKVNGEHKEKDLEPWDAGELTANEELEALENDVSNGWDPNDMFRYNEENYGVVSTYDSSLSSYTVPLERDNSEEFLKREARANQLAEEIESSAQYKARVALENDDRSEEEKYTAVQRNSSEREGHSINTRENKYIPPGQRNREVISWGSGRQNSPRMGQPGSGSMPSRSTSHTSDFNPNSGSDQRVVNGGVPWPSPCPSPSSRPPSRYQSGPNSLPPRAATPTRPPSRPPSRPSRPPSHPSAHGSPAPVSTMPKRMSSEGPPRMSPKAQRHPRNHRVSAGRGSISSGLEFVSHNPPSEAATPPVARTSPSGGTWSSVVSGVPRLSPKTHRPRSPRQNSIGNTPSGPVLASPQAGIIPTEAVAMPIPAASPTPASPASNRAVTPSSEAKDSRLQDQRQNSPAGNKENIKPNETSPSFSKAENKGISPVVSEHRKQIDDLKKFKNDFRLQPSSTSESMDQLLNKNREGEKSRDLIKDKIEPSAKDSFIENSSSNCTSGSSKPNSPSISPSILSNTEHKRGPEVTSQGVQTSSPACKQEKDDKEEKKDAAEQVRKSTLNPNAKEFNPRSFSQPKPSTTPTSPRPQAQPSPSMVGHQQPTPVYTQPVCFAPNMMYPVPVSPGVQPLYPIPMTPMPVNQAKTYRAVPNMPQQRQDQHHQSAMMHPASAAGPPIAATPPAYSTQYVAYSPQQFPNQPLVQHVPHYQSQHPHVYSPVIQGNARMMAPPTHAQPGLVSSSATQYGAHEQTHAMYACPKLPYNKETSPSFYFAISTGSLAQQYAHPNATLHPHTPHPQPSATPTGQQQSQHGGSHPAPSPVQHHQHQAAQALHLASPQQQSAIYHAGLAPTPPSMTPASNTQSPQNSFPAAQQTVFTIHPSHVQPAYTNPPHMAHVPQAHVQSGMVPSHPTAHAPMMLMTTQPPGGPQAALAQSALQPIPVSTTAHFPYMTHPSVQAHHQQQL
About 2,100 (0.53%) of roughly 400,000 compounds were called active. Another 14% or so got no clear call; they are omitted. How the calls were made is not given here. Shown is part of a subset that was picked to be rich in actives.
Would you mind answering with one of these outcomes? YES = active, NO = inactive

Ask: Which outcome was entered for the compound CC(=O)Oc1ccc2cc(-c3cccnc3)c(=O)oc2c1 in this test?
Result: NO

Ask: Which outcome was entered for the compound Cc1ccc2nc3c(cc(C(=O)NC4CCCCC4)c(=N)n3C3CCCCC3)c(=O)n2c1 in this test?
Result: NO

Ask: Which outcome was entered for the compound O=C(Cc1csc(Nc2nc(S)nc3ccccc23)n1)N1CCN(c2cccc(C(F)(F)F)c2)CC1 in this test?
Result: NO

Ask: Which outcome was entered for the compound Cc1ccc(C(=O)Nc2nc3n(n2)C(c2ccc(F)cc2)C=C(c2ccccc2)N3)cc1 (configuration not stated) in this test?
Result: NO

Ask: Which outcome was entered for the compound OC(c1cc(C(F)(F)F)nc2c(C(F)(F)F)cccc12)C1CCCCN1 (configuration not stated) in this test?
Result: YES

Ask: Which outcome was entered for the compound CC(C)(C)c1ccc(SCCc2cccnc2)cc1 in this test?
Result: NO
